- System: in vivo angiogenesis, blood vessel count
- ASSAY_OVERVIEW: reduction of blood vessel formation in vivo – HTS, in vivo study (AID 732);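 also: zebrafish embryos dosed at one day post fertilization; 0% = reference inhibitor and 100% = plate mean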
- PROTOCOL_CONDITIONS: hits give low values;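 tested at 30 µM in the well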
I'd be grateful if you could share measured vessel count % control for these entries.
Write down the numeric answer in % and omit the unit.

# input compound: Cc1ccc(C(=O)O[C@H](C(=O)O)[C@H](OC(=O)c2ccc(C)cc2)C(=O)O)cc1 (tested in a mixture with another compound) ; wanted: its vessel count % control
109

Try the compound Oc1ccc2c3c1O[C@H]1c4[nH]c5ccccc5c4C[C@@]4(O)C(C2)N(CC2CC2)CCC314 (some centres not stated)
115

Also check `O=C(O)[C@H]1NCCC[C@H]1C(=O)O`
121

Now try CN1CCc2cccc3c2C1Cc1ccc(O)c(O)c1-3 (configuration not stated) .
0

Also `NCCSSCCN` ?
118

Let us now turn to `Cc1cccc(C)c1NC1=NCCCS1`
114

What about `Cc1ccc(/C(=C\CN2CCCC2)c2ccccn2)cc1` ?
80

Can you handle `O=C(O)CN(CCOCCOCCN(CC(=O)O)CC(=O)O)CC(=O)O` next?
103

Try this compound next: `O=c1[nH]c2cc(C(F)(F)F)ccc2n1-c1cc(C(F)(F)F)ccc1O`
91.2

Another compound to check: `S=C(NC1CCCCC1)N1CCC(c2cnc[nH]2)CC1`
129

Please give the result for `NC(=O)c1cccc(N)c1` too.
117

Entry NC1CC1c1ccccc1 (configuration not stated) please
94.1

----------
- Tested on: in vivo angiogenesis, blood vessel count
- ASSAY_OVERVIEW: reduction of blood vessel formation in vivo – HTS, in vivo study (AID 732);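 also: zebrafish embryos dosed at one day post fertilization; 0% = reference inhibitor and 100% = plate mean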
- PROTOCOL_CONDITIONS: hits give low values;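 tested at 30 µM in the well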
Would you kindly list vessel count % control for each of these compounds?
# value in %; strip the unit string

Request the reported vessel count % control associated with `c1ccc2nc(N3CCNCC3)ccc2c1`
98

Input `O=c1c2ccccc2[se]n1-c1ccccc1`
94.8

And `Cn1c(=O)c2[nH]c(-c3ccc(S(=O)(=O)O)cc3)nc2n(C)c1=O` ?
106

Then what about the compound `Cc1ccc2c(c1)C(N1CCN(C)CC1)=Nc1cccnc1N2` ?
127

Can you check O[Si](CCCN1CCCCC1)(c1ccc(F)cc1)C1CCCCC1 (stereo not drawn) next?
107

One more compound: `CN(C)CCN(Cc1cccs1)c1ccccn1`
110

Further, for `O=C(O)c1cc[c]([Hg][Cl])cc1` ?
105

Same read-out for `O=C(CCCN1CCC2(CC1)C(=O)NCN2c1ccccc1)c1ccc(F)cc1` ?
77.9

Then what about the compound `COc1cc(NS(C)(=O)=O)ccc1Nc1c2ccccc2nc2ccccc12` ?
106

`O=C1CCCN1CC#CCN1CCCC1` , same question.
99.6

Subsequent entry: `CCO/C([O-])=N/c1c[n+](N2CCOCC2)no1`
100

Then what about the compound CN(C)CCC(c1ccc(Cl)cc1)c1ccccn1 (stereo not drawn) ?
128

And for `OCCN1CCN(CCCN2c3ccccc3Sc3ccc(Cl)cc32)CC1` ?
99.2

----------
So I've got a bunch of compounds here, and I need their vessel count % control values.
- Test system: in vivo angiogenesis, blood vessel count
- ASSAY_OVERVIEW: reduction of blood vessel formation in vivo – HTS, in vivo study (AID 732);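 also: zebrafish embryos dosed at one day post fertilization; 0% = reference inhibitor and 100% = plate mean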
- PROTOCOL_CONDITIONS: hits give low values;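 tested at 30 µM in the well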
Numeric only. Scale: %

# input compound: `O=c1[nH]c(=O)n([C@H]2C[C@H](O)[C@@H](CO)O2)cc1/C=C/Br` ; wanted: its vessel count % control
93

How about this compound: `Cc1ccc(S(=O)(=O)N[C@@H](Cc2ccccc2)C(=O)CCl)cc1`
97.1

Next: `Oc1ccc(O)cc1`
128

// repeat for `C[C@@H](NC(=O)/C(C#N)=C/c1ccc(O)c(O)c1)c1ccccc1` and report
128

What do we get for CN1CC[C@@]2(C)c3cc(O)ccc3N(C)C12 (some centres not stated) ?
95.1

Now consider CN(C)CCOC(C)(c1ccccc1)c1ccccn1 (configuration not stated) and answer again.
95.7

Query CCCCCN(CCCCC)C(=O)C(CCC(=O)O)NC(=O)c1ccc(Cl)c(Cl)c1 (configuration not stated) next
81.3

What about this compound? CCCCCCCCCCCCCCCCCC(=O)NCC(COP(=O)([O-])OCC[N+](C)(C)C)OCC (configuration not stated)
101

// next record `O=C1C=CC(=O)C=C1`
84.8

Another compound to check: COc1ccc2c(c1)C13CCCCC1C(C2)N(C)CC3 (configuration not stated)
108

Also, `CN(C)CCOC(=O)COc1ccc(Cl)cc1` please.
102

Repeat for the following compound: CC(Cc1ccc(OCC(=O)O)cc1)NCC(O)c1cccc(Cl)c1 (configuration not stated)
97.7
